Item-by-item account of collision cross section
assay: collision cross section of modified peptide (TIMS, N2, iRT-aligned); higher = larger / more extended gas-phase ion; conditions: charge state: 2; modification: Trimethyl (K)
A number alone suffices; assume Å².

Use the examples below as a reference point.
VFSIISSEKELK [_VFSIISSEK(Trimethyl (K))ELK_]    421.37
TEVLSPNSKVESK [_TEVLSPNSK(Trimethyl (K))VESK_]    405.78
DTPTSAGPNSFNKGK [_DTPTSAGPNSFNK(Trimethyl (K))GK_]    411.65

Now for the sequence whose collision cross section we want.
Data request, read-out collision cross section, for LDEKENLSAK [_LDEK(Trimethyl (K))ENLSAK_]
376.2

====

Below, each entry is listed alongside its reported collision cross section.
experiment: collision cross section of modified peptide (TIMS, N2, iRT-aligned); higher = larger / more extended gas-phase ion; conditions: charge state: 2; modification: Trimethyl (K)
Response body: numeric value in Å², unit text excluded.

Solved entries:
ALASIDSKLNQAK [_ALASIDSK(Trimethyl (K))LNQAK_]    417.47
DYSSGFGGKYGVQADR [_DYSSGFGGK(Trimethyl (K))YGVQADR_]    437.78
LTSLNVKYNNDK [_LTSLNVK(Trimethyl (K))YNNDK_]    406.52

Would you mind telling me what collision cross section value was observed for TTEETSKPK [_TTEETSK(Trimethyl (K))PK_] ?
342

Queued: GTITVSAQELKDNR [_GTITVSAQELK(Trimethyl (K))DNR_]
442.48

// next record AGPNASIISLKSDK [_AGPNASIISLK(Trimethyl (K))SDK_]
422.03

Please do the same for DVNAAIAAIKTK [_DVNAAIAAIK(Trimethyl (K))TK_] as well.
402.42

Next sequence up: DLSTVEALQNLKNLK [_DLSTVEALQNLK(Trimethyl (K))NLK_]
478.82

Likewise for TPNLYIYSKK [_TPNLYIYSK(Trimethyl (K))K_] ?
381.37

Do the same for GGPGSTLSFVGKR [_GGPGSTLSFVGK(Trimethyl (K))R_] please
401.16

====

test: collision cross section of unmodified peptide (TIMS, N2, iRT-aligned); higher = larger / more extended gas-phase ion; conditions: charge state: 3
// reported collision cross section per item
Write down the numeric answer in Å² and omit the unit.

Worked cases, answers included:
GEQGEPGAPGIRTGIQGLK    505.34
IVSGKDYNVTANSK    485.92
DAEAAEATAEGALKAEK    544.24

Item LLEQKTQESQK has what recorded collision cross section?
453.32

Please give the result for DDSFLGKLGGTLAR too.
475.25

Then what about the sequence GERGFPGYPGPK ?
460.83

Follow-up entry: SEASSEFAKK
422.04

Try this sequence next: GGPGGELPRGPQAGLGPR
491.33

Also check ISSNFSSIIAEKLR
511.25

Moving on to the next sequence: ASEALLKQLK
459.21

Note, next up: ASNAAVKLAESK
452.24

Moving on to the next sequence: FSAYIKNSNPALNDNLEK
521.97

And TAGSSGVTAGRPRPTAR ?
538.39

====

experiment: collision cross section of modified peptide (TIMS, N2, iRT-aligned); higher = larger / more extended gas-phase ion; conditions: charge state: 2; modification: GlyGly (K)
// label = T if collision cross section is not less than 400 Å², otherwise F

Record excerpt, results attached:
DYSSGFGGKYGVQADR [_DYSSGFGGK(GlyGly (K))YGVQADR_]    T
DLSTVEALQNLKNLK [_DLSTVEALQNLK(GlyGly (K))NLK_]    T
STGLELETPSLVPVKK [_STGLELETPSLVPVK(GlyGly (K))K_]    T
VSPASSVDSNIPSSQGYKK [_VSPASSVDSNIPSSQGYK(GlyGly (K))K_]    T
VPTTEKPTVTVNFR [_VPTTEK(GlyGly (K))PTVTVNFR_]    T

Quick check: does SPDEAYAIAKK [_SPDEAYAIAK(GlyGly (K))K_] have collision cross section greater than or equal to 400 Å²?
F

Thanks! And DDSFLGKLGGTLAR [_DDSFLGK(GlyGly (K))LGGTLAR_] ?
T

Entry to check: IINEPTAAAIAYGLDKK [_IINEPTAAAIAYGLDK(GlyGly (K))K_]
T

Repeat for the following sequence: TTEETSKPK [_TTEETSK(GlyGly (K))PK_]
F

Then what about the sequence KFGVLSDNFK [_K(GlyGly (K))FGVLSDNFK_] ?
F

Queued: DKALPLEAEVAPVK [_DK(GlyGly (K))ALPLEAEVAPVK_]
T

// next record ILDLKTGTVK [_ILDLK(GlyGly (K))TGTVK_]
F

Can you check VGIDTPDIDIHGPEGKLK [_VGIDTPDIDIHGPEGK(GlyGly (K))LK_] next?
T

Item: LDHLAEKFR [_LDHLAEK(GlyGly (K))FR_]
F

What do we get for LLFSNTAAQKLR [_LLFSNTAAQK(GlyGly (K))LR_] ?
T

Request: IDLPAENSNSETIIITGKR [_IDLPAENSNSETIIITGK(GlyGly (K))R_]
T

Reference source: the supplement of paper PMC10598134
